Ref: patent US20020137929A1

- Test system: SAGPY (Arrowhead (Pygmaea))
- assay-text: Preemergence weed control under flooded paddy conditions
- Assay type: in vivo, Sagittaria pygmaea
- test-settings: 0.0625 kg/ha, rated 3-4 weeks after treatment
Please respond with reported SAGPY herbicidal effect rating for every item in the list.
Give bare numbers.

molecule	assayed-system	SAGPY herbicidal effect rating
CCOC(=O)CN1C(=O)C(CC(=O)NS(=O)(=O)CC)SC1=Nc1cc(-n2c(=O)cc(C(F)(F)F)n(C)c2=O)c(F)cc1Cl (stereo not drawn) [Compound 103]	SAGPY (Arrowhead (Pygmaea))	9.0
C=CCN1C(=O)C(CC(=O)OC(C)C)SC1=Nc1cc(-n2c(=O)cc(C(F)(F)F)n(C)c2=O)c(F)cc1Cl (stereo not drawn) [Compound 66]	SAGPY (Arrowhead (Pygmaea))	4.0
C=CCN1C(=O)C(CC(=O)OC(C)C(=O)OCC)SC1=Nc1cc(-n2c(=O)ccn(C)c2=O)c(F)cc1Cl (stereo not drawn) [Compound 94]	SAGPY (Arrowhead (Pygmaea))	0.0

Okay, here is my list. What is SAGPY herbicidal effect rating for each of these?
1. CCCCOC(=O)CN1C(=O)CSC1=Nc1cc(-n2c(=O)cc(C(F)(F)F)n(C)c2=O)c(F)cc1Cl [Compound 111]
2. COC(=O)CC1SC(=Nc2cc(-n3c(=O)cc(C(F)(F)F)n(C)c3=O)c(F)cc2Cl)N(C)C1=O (stereo not drawn) [Compound 88]
3. Cn1c(C(F)(F)F)cc(=O)n(-c2cc(N=C3SCC(=O)N3[C@H](Cc3ccccc3)C(=O)O)c(Cl)cc2F)c1=O [Compound 69]
4. COC(=O)C1(N2C(=O)CSC2=Nc2cc(-n3c(=O)cc(C(F)(F)F)n(C)c3=O)c(F)cc2Cl)CCCCC1 [Compound 81]
5. CCOC(=O)CN1C(=O)C(CC(=O)OC(C)C(=O)OCC)S/C1=N/c1cc(-n2c(=O)cc(C(F)(F)F)n(C)c2=O)c(F)cc1Cl (stereo not drawn) [Compound 87]
6. CCOC(=O)C(c1ccc(Cl)cc1)N1C(=O)CSC1=Nc1cc(-n2c(=O)cc(C(F)(F)F)n(C)c2=O)c(F)cc1Cl (racemic) [Compound 79]
7. CCS(=O)(=O)NC(=O)CC1SC(=Nc2cc(-n3c(=O)cc(C(F)(F)F)n(C)c3=O)c(F)cc2Cl)N(C)C1=O (stereo not drawn) [Compound 105]
8. COCCOC(=O)CN1C(=O)CSC1=Nc1cc(-n2c(=O)cc(C(F)(F)F)n(C)c2=O)c(F)cc1Cl [Compound 107]

Reply:
[4.0, 9.0, 0.0, 0.0, 4.0, 0.0, 5.0, 0.0]

Query: Recall and state the measured SAGPY herbicidal effect rating for COC(=O)[C@H](Cc1ccccc1)N1C(=O)CS/C1=N/c1cc(-n2c(=O)cc(C(F)(F)F)n(C)c2=O)c(F)cc1Cl [Compound 72] .
Reply: 4.0
